System: pigweed, palmer (palmer pigweed, Amaranthus palmeri)
Assay: Test E greenhouse herbicide test, pre- and postemergence
Assay type: in vivo
Settings: 62 g ai/ha, Postemergence; scale 0 to 100 (0 no effect, 100 complete control)
Quantity: Plant response rating, Pigweed, Palmer
Reply briefly: the number, and no unit.

given_smiles=CC(=O)Oc1c(C)nn(C)c(=O)c1-c1c(C)sc2ccc(C)cc12 result=80

Consider the compound shown here: "CC(=O)Oc1c(C)nn(C)c(=O)c1-c1ccc(F)c2ccccc12" What is its recorded Plant response rating, Pigweed, Palmer? 50

Consider the compound shown here: "CCOC(=O)Oc1c(C)nn(C)c(=O)c1-c1c(C)sc2ccc(C)cc12" What is its recorded Plant response rating, Pigweed, Palmer? 60

Consider the compound shown here: "CCC(=O)Oc1c(C)nn(C)c(=O)c1-c1c(C)sc2ccc(Cl)cc12" What is its recorded Plant response rating, Pigweed, Palmer? 65

Consider the compound shown here: "CCC(=O)Oc1c(C)nn(C)c(=O)c1-c1c(C)sc2ccc(C)cc12" What is its recorded Plant response rating, Pigweed, Palmer? 75
